Just for reference, the supplement of paper PMC11732987 is where these values come from.

target: PRPF8 (UniProt Q6P2Q9); assay: log2 ratio of Biotin-Ahx-Ub-VS probe labelling (fragment/DMSO); higher = less target engagement (more negative = stronger competition), active = hit call of the paper (q ≤ 0.05, log2 ratio ≤ -1); conditions: compound concentration: 200 uM; treatment time: 3 h
Assign log2 ratio of Biotin-Ahx-Ub-VS probe labelling to each entry below.
Keep it simple and answer with nothing but the number.

Query block: Request the reported log2 ratio of Biotin-Ahx-Ub-VS probe labelling associated with Cl.O=C(CCl)NCc1cc2c(nc1O)CCCC2
Result block: -0.141

Query block: Request the reported log2 ratio of Biotin-Ahx-Ub-VS probe labelling associated with O=C(CCl)N1CCC(c2noc3cc(F)ccc23)CC1
Result block: -0.0836

Query block: Request the reported log2 ratio of Biotin-Ahx-Ub-VS probe labelling associated with O=C(CCl)NCc1noc(C2CC2)n1
Result block: -0.106

Query block: Request the reported log2 ratio of Biotin-Ahx-Ub-VS probe labelling associated with Cc1cccc(N(CCC#N)C(=O)CCl)c1C
Result block: 0.241

Query block: Request the reported log2 ratio of Biotin-Ahx-Ub-VS probe labelling associated with Cl.Cn1nccc1C(NC(=O)CCl)c1ccccc1 (configuration not stated)
Result block: 0.0203

Query block: Request the reported log2 ratio of Biotin-Ahx-Ub-VS probe labelling associated with O=C(CCl)N1CCC(O)(Cc2ccc(F)cc2)C1 (configuration not stated)
Result block: -0.0432

Query block: Request the reported log2 ratio of Biotin-Ahx-Ub-VS probe labelling associated with Cl.Cn1ncc2c1CCCC2NC(=O)CCl (configuration not stated)
Result block: 0.261

Query block: Request the reported log2 ratio of Biotin-Ahx-Ub-VS probe labelling associated with O=C(CCl)N1CCc2ccccc2C(O)C1 (configuration not stated)
Result block: 0.137

Query block: Request the reported log2 ratio of Biotin-Ahx-Ub-VS probe labelling associated with Cl.O=C(CN1CCN(C(=O)CCl)CC1)Nc1ccc(F)cc1
Result block: 0.0678

Query block: Request the reported log2 ratio of Biotin-Ahx-Ub-VS probe labelling associated with C#Cc1cccc(NC(=O)CCl)c1
Result block: 0.296

Query block: Request the reported log2 ratio of Biotin-Ahx-Ub-VS probe labelling associated with CCN(C(=O)CCl)C1CCCCC1
Result block: -0.0683

Query block: Request the reported log2 ratio of Biotin-Ahx-Ub-VS probe labelling associated with Cc1ccccc1C1(CNC(=O)CCl)CCOCC1
Result block: -0.0655

Query block: Request the reported log2 ratio of Biotin-Ahx-Ub-VS probe labelling associated with Cc1ccccc1OCC(=O)N1CCN(C(=O)CCl)CC1
Result block: 0.281

Query block: Request the reported log2 ratio of Biotin-Ahx-Ub-VS probe labelling associated with CCN1C(=O)C2CN(C(=O)CCl)CCN2C1=O (configuration not stated)
Result block: 0.0726

Query block: Request the reported log2 ratio of Biotin-Ahx-Ub-VS probe labelling associated with Cn1cc(CN(Cc2ccc(Cl)cc2)C(=O)CCl)cn1
Result block: 0.208

Query block: Request the reported log2 ratio of Biotin-Ahx-Ub-VS probe labelling associated with CC(NC(=O)CCl)c1noc(Cc2ccccc2)n1 (configuration not stated)
Result block: 0.0633

Query block: Request the reported log2 ratio of Biotin-Ahx-Ub-VS probe labelling associated with O=C(CCl)N[C@H]1CC[C@@H](CO)CC1
Result block: -0.24

Query block: Request the reported log2 ratio of Biotin-Ahx-Ub-VS probe labelling associated with Cc1cccc(N2CCC(NC(=O)CCl)C2=O)c1 (configuration not stated)
Result block: -0.232

Query block: Request the reported log2 ratio of Biotin-Ahx-Ub-VS probe labelling associated with Cc1cccnc1NC(=O)C1CCN(C(=O)CCl)CC1.Cl
Result block: -0.0508

Query block: Request the reported log2 ratio of Biotin-Ahx-Ub-VS probe labelling associated with O=C(CCl)N1CCN2C(=O)CCC2C1 (configuration not stated)
Result block: -0.164

Query block: Request the reported log2 ratio of Biotin-Ahx-Ub-VS probe labelling associated with O=C(CCl)N1CCOC2(CCC2)CC1
Result block: -0.071

Query block: Request the reported log2 ratio of Biotin-Ahx-Ub-VS probe labelling associated with O=C(CCl)N1CCN(c2nc3ccccc3o2)CC1
Result block: 0.299

Query block: Request the reported log2 ratio of Biotin-Ahx-Ub-VS probe labelling associated with O=C(CCl)NC1CCC(C(F)(F)F)CC1 (configuration not stated)
Result block: 0.103

Query block: Request the reported log2 ratio of Biotin-Ahx-Ub-VS probe labelling associated with CN(CCC(O)c1ccc(Br)cc1)C(=O)CCl (configuration not stated)
Result block: 0.169

Query block: Request the reported log2 ratio of Biotin-Ahx-Ub-VS probe labelling associated with CC(NC(=O)CCl)c1csc(-c2ccccc2)n1.Cl (configuration not stated)
Result block: -0.0372

Query block: Request the reported log2 ratio of Biotin-Ahx-Ub-VS probe labelling associated with CCN(C(=O)CCl)C1CCS(=O)(=O)C1 (configuration not stated)
Result block: -0.167

Query block: Request the reported log2 ratio of Biotin-Ahx-Ub-VS probe labelling associated with O=C(CCl)N1CCC(c2nc3ccccc3o2)CC1
Result block: -0.0832

Query block: Request the reported log2 ratio of Biotin-Ahx-Ub-VS probe labelling associated with O=C(CCl)NCc1ccc(Cl)cc1
Result block: 0.0877

Query block: Request the reported log2 ratio of Biotin-Ahx-Ub-VS probe labelling associated with O=C(CCl)Nc1cc(Cl)ccc1C(=O)O
Result block: -0.2

Query block: Request the reported log2 ratio of Biotin-Ahx-Ub-VS probe labelling associated with O=C(CCl)NCCc1cccc2ccccc12
Result block: 0.117

Query block: Request the reported log2 ratio of Biotin-Ahx-Ub-VS probe labelling associated with O=C(CCl)N(Cc1ccsc1)C1CC1
Result block: -0.0299

Query block: Request the reported log2 ratio of Biotin-Ahx-Ub-VS probe labelling associated with Cc1cccc2nc(CCNC(=O)CCl)cn12.Cl
Result block: -0.224

Query block: Request the reported log2 ratio of Biotin-Ahx-Ub-VS probe labelling associated with Cl.Cn1c(CNC(=O)CCl)nc2cccnc21
Result block: -0.144

Query block: Request the reported log2 ratio of Biotin-Ahx-Ub-VS probe labelling associated with Cc1cccc(C(CNC(=O)CCl)N2CCOCC2)c1.Cl (configuration not stated)
Result block: -0.0193

Query block: Request the reported log2 ratio of Biotin-Ahx-Ub-VS probe labelling associated with O=C(CCl)NCc1cccc(F)c1
Result block: -0.208

Query block: Request the reported log2 ratio of Biotin-Ahx-Ub-VS probe labelling associated with O=C(CCl)N1CCOCC1C1CC1 (configuration not stated)
Result block: -0.182

Query block: Request the reported log2 ratio of Biotin-Ahx-Ub-VS probe labelling associated with Cl.O=C(CCl)NC1(c2ncccn2)CCC1
Result block: -0.0462

Query block: Request the reported log2 ratio of Biotin-Ahx-Ub-VS probe labelling associated with CC(NC(=O)CCl)c1cc2n(n1)CCCC2.Cl (configuration not stated)
Result block: 0.0583

Query block: Request the reported log2 ratio of Biotin-Ahx-Ub-VS probe labelling associated with COc1ccc(Cl)cc1NC(=O)CCl
Result block: -0.0117

Query block: Request the reported log2 ratio of Biotin-Ahx-Ub-VS probe labelling associated with Cl.O=C(CCl)N1CCN(Cc2ccccc2)CC1
Result block: -0.0463

Query block: Request the reported log2 ratio of Biotin-Ahx-Ub-VS probe labelling associated with Cl.O=C(CCl)N1CC(c2ccc(Br)cn2)C1
Result block: 0.0941

Query block: Request the reported log2 ratio of Biotin-Ahx-Ub-VS probe labelling associated with CC(NC(=O)CCl)c1ccc2[nH]ncc2c1 (configuration not stated)
Result block: -0.0557

Query block: Request the reported log2 ratio of Biotin-Ahx-Ub-VS probe labelling associated with NC(=O)C(Cc1ccccc1)NC(=O)CCl (configuration not stated)
Result block: -0.0593

Query block: Request the reported log2 ratio of Biotin-Ahx-Ub-VS probe labelling associated with COc1ccc(CN(C)C(=O)CCl)cc1
Result block: 0.0533

Query block: Request the reported log2 ratio of Biotin-Ahx-Ub-VS probe labelling associated with O=C(CCl)N1CCc2sccc2C1
Result block: 0.249

Query block: Request the reported log2 ratio of Biotin-Ahx-Ub-VS probe labelling associated with Cc1cccn2cc(CCNC(=O)CCl)nc12.Cl
Result block: 0.19

Query block: Request the reported log2 ratio of Biotin-Ahx-Ub-VS probe labelling associated with Cc1ccc(CNC(=O)CCl)nc1C.Cl
Result block: 0.14

Query block: Request the reported log2 ratio of Biotin-Ahx-Ub-VS probe labelling associated with O=C(CCl)N(C1=CCCCC1)C1CC1
Result block: 0.215

Query block: Request the reported log2 ratio of Biotin-Ahx-Ub-VS probe labelling associated with O=C(CCl)NCC(=O)N1CCCC1
Result block: -0.0276

Query block: Request the reported log2 ratio of Biotin-Ahx-Ub-VS probe labelling associated with O=C(CCl)N1CCCCC12CCOCC2
Result block: -0.0698

Query block: Request the reported log2 ratio of Biotin-Ahx-Ub-VS probe labelling associated with O=C(CCl)N1CCN(C(=O)N2CCCCC2)CC1
Result block: -0.0826

Query block: Request the reported log2 ratio of Biotin-Ahx-Ub-VS probe labelling associated with O=C(CN1CCN(C(=O)CCl)CC1)Nc1cccc(F)c1
Result block: -0.19

Query block: Request the reported log2 ratio of Biotin-Ahx-Ub-VS probe labelling associated with O=C(CCl)NCCc1ccc2c(c1)OCCO2
Result block: 0.0207

Query block: Request the reported log2 ratio of Biotin-Ahx-Ub-VS probe labelling associated with Cl.Cn1cnc2cc(CNC(=O)CCl)ccc21
Result block: 0.126

Query block: Request the reported log2 ratio of Biotin-Ahx-Ub-VS probe labelling associated with O=C(CCl)N1CCC(OCc2ccccc2F)CC1
Result block: 0.14

Query block: Request the reported log2 ratio of Biotin-Ahx-Ub-VS probe labelling associated with CC1CCc2onc(CNC(=O)CCl)c2C1 (configuration not stated)
Result block: -0.225

Query block: Request the reported log2 ratio of Biotin-Ahx-Ub-VS probe labelling associated with Cc1cnc2[nH]cc(CCNC(=O)CCl)c2c1
Result block: -0.0916
